Where do these numbers come from? They come from paper PMC6539310.

Target: α-amylase
Experiment: α-amylase inhibition assay (starch-iodine)
pIC50: −log10 of the molar value.

# compound_structure_string, pIC50
data = [
    ("OC[C@H]1NC[C@@H](O)[C@@H]1O", "< 4.00"),
    ("OC[C@H]1NCC[C@@H](O)[C@@H]1O", "< 4.00"),
    ("OC[C@H]1NC[C@H](O)[C@@H](O)[C@@H]1O", "< 4.00"),
]

---

Target: sucrase (Rattus norvegicus)
Construct: Sucrase and maltase were obtained from the intestinal brush border of Wistar rats; from tissue; host or cells: intestinal brush border of Wistar rats
Sequence (P23739 whole entry): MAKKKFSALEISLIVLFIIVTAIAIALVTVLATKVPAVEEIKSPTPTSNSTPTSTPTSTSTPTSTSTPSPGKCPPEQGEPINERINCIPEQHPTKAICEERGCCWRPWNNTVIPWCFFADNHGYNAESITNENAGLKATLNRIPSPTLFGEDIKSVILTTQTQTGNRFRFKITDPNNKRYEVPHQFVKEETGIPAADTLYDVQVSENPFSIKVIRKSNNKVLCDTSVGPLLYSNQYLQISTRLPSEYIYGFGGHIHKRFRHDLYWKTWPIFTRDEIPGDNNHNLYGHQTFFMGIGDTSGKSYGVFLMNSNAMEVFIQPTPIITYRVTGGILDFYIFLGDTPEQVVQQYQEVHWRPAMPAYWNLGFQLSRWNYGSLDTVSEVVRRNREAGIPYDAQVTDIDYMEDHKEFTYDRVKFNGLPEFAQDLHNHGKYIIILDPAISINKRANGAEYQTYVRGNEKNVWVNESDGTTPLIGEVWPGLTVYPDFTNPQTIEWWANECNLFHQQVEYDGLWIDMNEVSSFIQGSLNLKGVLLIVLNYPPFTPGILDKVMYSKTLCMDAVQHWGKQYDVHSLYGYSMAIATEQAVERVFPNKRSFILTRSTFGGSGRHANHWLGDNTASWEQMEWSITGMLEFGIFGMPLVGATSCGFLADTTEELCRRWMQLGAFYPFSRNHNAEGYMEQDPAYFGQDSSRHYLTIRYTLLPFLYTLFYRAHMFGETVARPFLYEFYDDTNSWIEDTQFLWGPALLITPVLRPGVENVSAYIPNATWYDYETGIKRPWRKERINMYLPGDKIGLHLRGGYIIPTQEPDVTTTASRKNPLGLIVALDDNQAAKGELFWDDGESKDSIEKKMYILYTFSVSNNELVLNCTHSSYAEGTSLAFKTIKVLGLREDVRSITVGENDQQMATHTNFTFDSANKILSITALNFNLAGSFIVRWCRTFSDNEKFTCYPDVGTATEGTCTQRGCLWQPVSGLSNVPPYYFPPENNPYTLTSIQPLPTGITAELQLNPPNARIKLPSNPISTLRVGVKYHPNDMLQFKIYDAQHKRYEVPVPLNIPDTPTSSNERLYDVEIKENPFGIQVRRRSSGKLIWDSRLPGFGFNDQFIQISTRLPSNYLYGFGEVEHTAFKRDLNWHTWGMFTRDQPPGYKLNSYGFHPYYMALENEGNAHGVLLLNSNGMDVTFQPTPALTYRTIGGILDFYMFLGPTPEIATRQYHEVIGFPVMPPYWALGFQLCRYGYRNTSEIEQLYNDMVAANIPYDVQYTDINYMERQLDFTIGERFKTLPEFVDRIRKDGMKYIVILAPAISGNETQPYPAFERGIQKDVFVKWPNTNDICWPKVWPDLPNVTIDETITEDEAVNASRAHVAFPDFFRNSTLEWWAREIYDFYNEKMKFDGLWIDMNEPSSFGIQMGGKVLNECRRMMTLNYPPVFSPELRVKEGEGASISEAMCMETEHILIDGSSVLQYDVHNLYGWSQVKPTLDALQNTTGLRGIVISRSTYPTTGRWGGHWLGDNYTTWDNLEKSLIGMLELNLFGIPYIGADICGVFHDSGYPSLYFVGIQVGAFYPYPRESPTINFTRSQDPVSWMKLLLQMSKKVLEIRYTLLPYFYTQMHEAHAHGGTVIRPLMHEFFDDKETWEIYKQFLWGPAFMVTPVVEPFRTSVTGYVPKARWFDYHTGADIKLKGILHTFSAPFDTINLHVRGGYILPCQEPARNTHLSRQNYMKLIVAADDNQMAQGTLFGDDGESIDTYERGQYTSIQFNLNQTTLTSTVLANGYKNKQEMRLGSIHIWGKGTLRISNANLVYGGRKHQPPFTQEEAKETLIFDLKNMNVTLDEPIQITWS
Assay: α-glucosidase inhibition assay, sucrase (sucrose substrate, glucose oxidase readout)
Type: biochemical, Wistar rats
Conditions: read-out: Sucrase Inhibition IC50
Readings of IC50 for the listed compounds

# compound, quantity_unit, IC50
data = [
    ("OC[C@H]1NCC[C@@H](O)[C@@H]1O [FA, fagomine]", "µM", 13.5),
    ("OC[C@H]1NC[C@H](O)[C@@H](O)[C@@H]1O [1-DNJ, 1-deoxynojirimycin]", "µM", 0.078),
]

---

Read-out record for sucrase (Rattus norvegicus): Ki

# compound_structure_string, target, Ki (nM)
records = [
    ("OC[C@H]1NCC[C@@H](O)[C@@H]1O", "sucrase (Rattus norvegicus)", 3970),
    ("OC[C@H]1NC[C@H](O)[C@@H](O)[C@@H]1O", "sucrase (Rattus norvegicus)", 13.7),
]
